molecular target: Prolyl endopeptidase (Sus scrofa); test: In vitro inhibitory activity against porcine prolyl oligopeptidase by using 4 mM Suc-Gly-Pro-7-amido-4-methylcoumarin as substrate (pH 7.0) at 30 degree C for 60 min
Sequence (P23687 whole entry): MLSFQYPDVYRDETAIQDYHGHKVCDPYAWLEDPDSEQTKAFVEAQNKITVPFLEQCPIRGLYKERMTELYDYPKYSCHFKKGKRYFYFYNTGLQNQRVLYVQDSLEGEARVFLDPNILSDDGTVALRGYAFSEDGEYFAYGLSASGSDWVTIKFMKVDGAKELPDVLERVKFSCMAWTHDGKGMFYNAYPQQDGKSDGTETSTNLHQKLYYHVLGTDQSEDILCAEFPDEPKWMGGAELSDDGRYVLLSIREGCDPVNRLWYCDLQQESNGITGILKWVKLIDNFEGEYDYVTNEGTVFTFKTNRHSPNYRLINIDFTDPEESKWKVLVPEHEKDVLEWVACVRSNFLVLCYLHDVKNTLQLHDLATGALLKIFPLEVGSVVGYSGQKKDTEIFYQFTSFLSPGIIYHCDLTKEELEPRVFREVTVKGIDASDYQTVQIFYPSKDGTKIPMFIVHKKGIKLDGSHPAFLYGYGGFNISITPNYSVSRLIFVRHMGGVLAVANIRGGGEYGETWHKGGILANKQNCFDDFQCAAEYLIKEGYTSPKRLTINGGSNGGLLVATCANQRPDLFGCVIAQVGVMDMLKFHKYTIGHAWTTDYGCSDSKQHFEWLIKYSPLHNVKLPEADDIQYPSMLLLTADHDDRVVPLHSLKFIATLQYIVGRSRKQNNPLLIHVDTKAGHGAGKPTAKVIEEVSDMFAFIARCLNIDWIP
quantityName: IC50 (nM)
Write the value in nM as a bare number.

Illustrative cases are given below, each with its answer.
[[record]]
moleculesmiles = "O=C(C1CCCC1)[C@@H]1CCCN1C(=O)c1cccc(C(=O)N2CCC[C@H]2C(=O)N2CCCC2)c1"
quantityname = "IC50"
unitslabel = "nM"
reported = 14

[[record]]
moleculesmiles = "O=C([C@@H]1CCCN1C(=O)c1cccc(C(=O)N2CCC[C@H]2C(=O)N2CCNCC2)c1)N1CCCC1"
quantityname = "IC50"
unitslabel = "nM"
reported = 33

[[record]]
moleculesmiles = "N#C[C@@H]1CCCN1C(=O)[C@@H]1CCCN1C(=O)c1cccc(C(=O)N2CCC[C@H]2C(=O)C2CCCCC2)c1"
quantityname = "IC50"
unitslabel = "nM"
reported = 0.72


Please look at the following molecule next.
# input Suppose we examine the molecule CC(=O)[C@@H]1CCCN1C(=O)c1cccc(C(=O)N2CCC[C@H]2C(=O)N2CCC[C@H]2C#N)c1 ; what IC50 value has been reported?
# output 4.2

###

molecular target: UniProt:P23687; test: In vitro inhibitory activity against porcine prolyl oligopeptidase by using 4 mM Suc-Gly-Pro-7-amido-4-methylcoumarin as substrate (pH 7.0) at 30 degree C for 60 min
# key: entry, value: pIC50
Scale explanation: pIC50 corresponds to minus log10 of a concentration expressed in moles per litre.

Here is how some compounds turned out for pIC50.
[[record]]
moleculesmiles = "O=C([C@@H]1CCCN1C(=O)c1cccc(C(=O)N2CCC[C@H]2C(=O)N2CCCC2)c1)N1CCCCCC1"
systemname = "UniProt:P23687"
reported = 7.64

[[record]]
moleculesmiles = "O=C(c1ccccc1)[C@@H]1CCCN1C(=O)c1cccc(C(=O)N2CCC[C@H]2C(=O)N2CCCC2)c1"
systemname = "UniProt:P23687"
reported = 7.74


Proceed to the following item.
# input What value of measured pIC50 is listed for N#C[C@@H]1CCCN1C(=O)[C@@H]1CCCN1C(=O)c1cccc(C(=O)N2CCC[C@H]2C(=O)C2CCCC2)c1 ?
# output 8.96
